The values you see were collected from ChEMBL document CHEMBL1133580.

- system under test: Protein farnesyltransferase (Rattus norvegicus) (UniProt Q04631+Q02293)
- procedure details: In vitro inhibition of farnesyl transferase (FT) by using FT [3H]-SPA kit at the dose of 100 uM
- Format: protein-complex assay
reported property: inhibition (%)
The reply should be a number in %, with the unit left off.

Prompt line: Give a short answer stating reported inhibition for "COc1cc(C(c2c(O)oc3ccccc3c2=O)c2c(O)oc3ccccc3c2=O)cc(OC)c1OC" .
Response line: 27.8

Prompt line: Give a short answer stating reported inhibition for "O=C(Nc1ccc(F)cc1[N+](=O)[O-])Oc1ccc2cc(Br)ccc2c1" .
Response line: 26.4

Prompt line: Give a short answer stating reported inhibition for "COc1ccc(C=C(C(=O)c2ccccc2)C(=O)c2ccccc2)cc1" .
Response line: 30

Prompt line: Give a short answer stating reported inhibition for "CCCCCCn1c(N)c(C#N)c2ccc([N+](=O)[O-])cc2c1=O" .
Response line: 32.2

Prompt line: Give a short answer stating reported inhibition for "Cc1ccc(S(=O)(=O)C(Cl)(Cl)S(=O)(=O)c2ccc(C)cc2)cc1" .
Response line: 41.6

Prompt line: Give a short answer stating reported inhibition for O=C(Cc1cccc2ccccc12)NC(NC(=S)N1CCOCC1)C(Cl)(Cl)Cl (configuration not stated) .
Response line: 23.8

Prompt line: Give a short answer stating reported inhibition for "Cc1ccc(S(=O)(=O)N(C)c2ccc(Cl)cc2C2=NCC(C)(C)c3ccccc32)cc1" .
Response line: 16.8

Prompt line: Give a short answer stating reported inhibition for "O=C1NC(=S)S/C1=C\c1ccccc1I" .
Response line: 39.2

Prompt line: Give a short answer stating reported inhibition for "O=C(OCC(F)(F)C(F)(F)C(F)(F)C(F)(F)F)c1cc([N+](=O)[O-])cc2c1-c1c(cc([N+](=O)[O-])cc1[N+](=O)[O-])C2=O" .
Response line: 41.1

Prompt line: Give a short answer stating reported inhibition for "O=C(Oc1cc(S(=O)(=O)c2ccccc2)ccc1[N+](=O)[O-])c1cccnc1Cl" .
Response line: 19.7

Prompt line: Give a short answer stating reported inhibition for O=[N+]([O-])c1ccc(C2CC(c3cccnc3)=NN2c2ccccc2)cc1 (configuration not stated) .
Response line: 43.9

Prompt line: Give a short answer stating reported inhibition for "CC(=O)c1cc(C(=O)c2ccc(F)cc2)n2cnc3cc(F)ccc3c12" .
Response line: 24.5
